Biological target: Proteasome subunit beta (Trypanosoma cruzi) (UniProt O96673)
Sequence (whole entry): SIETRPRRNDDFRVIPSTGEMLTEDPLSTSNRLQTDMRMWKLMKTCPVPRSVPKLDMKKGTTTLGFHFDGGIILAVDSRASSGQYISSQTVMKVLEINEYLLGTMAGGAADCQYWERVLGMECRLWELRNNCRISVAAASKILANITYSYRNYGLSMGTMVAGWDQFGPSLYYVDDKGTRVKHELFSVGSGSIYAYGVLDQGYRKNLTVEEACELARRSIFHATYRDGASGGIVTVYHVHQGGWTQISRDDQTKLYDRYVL
Experiment: Trypanosoma cruzi proteasome chymotrypsin-like activity (TcProtChymo) assay. Further: in the data most compounds retested in dose-response had high values.
Format: functional
Design: scale not given: direction of the effect not stated beside the values
Conditions: 9.37 µM
measured.quantity: Percent Effect
Report as: number unit

- CC(C)(NCC(=O)NCCC#N)c1ccc2c(c1)OCCO2: 17.3%

Input: Let me know recorded Percent Effect for O=C(Cc1cccc(F)c1)NCCNCc1cccc(O)c1 , thanks.
Output: -0.169%

Input: Let me know recorded Percent Effect for Cc1ccc2c(n1)N(CCN(C)C)CCN(C(=O)c1ccc[nH]1)C2 , thanks.
Output: 18.6%

Input: Let me know recorded Percent Effect for Cc1ccc(CC(=O)N2CCCC(c3nc(C)cs3)C2)cn1 (configuration not stated) , thanks.
Output: 0.539%

Input: Let me know recorded Percent Effect for O=C(O)c1cc2c(nc1O)CC(c1cccc(Cl)c1)CC2=O (configuration not stated) , thanks.
Output: 7.21%

###

Species: Homo sapiens
Assay: To identify inhibition of the IFN signalling (Jak-Stat) pathway via expression of an eGFP reporter gene under the control of an IFN-stimulated response element (ISRE) containing MxA promoter.
Assay type: functional
Design: scale not given: direction of the effect not stated beside the values
Conditions: 30 µM
measured.quantity: Percent Effect (%)
Your answer should be a plain number; it is taken to be in %.

# annotated cases, reported Percent Effect shown
- O=C(Cn1cc(C(=O)O)ccc1=O)Nc1ccc(Cl)cc1F: 9.59
- Cc1csc(C2CCCCN2C(=O)CN(C)Cc2ccccc2)n1 (centres undefined): -0.936
- CCS(=O)(=O)N1CCC2(CC(=O)N(c3cccc(C)c3)C2)C1 (centres undefined): -25.8
- CN(CCCc1cnn(C)c1)C(=O)C1COc2ccccc2C1 (centres undefined): 9.33

Input: Let me know recorded Percent Effect for O=C(NCCN1CCNCC1)c1c(O)c2ccccc2[nH]c1=O , thanks.
Output: 26.5

Input: Let me know recorded Percent Effect for CCOc1ccccc1C(CC(=O)Nc1ccc(C)cn1)NC(C)=O (centres undefined) , thanks.
Output: 4.19

Input: Let me know recorded Percent Effect for Cc1cnn(CCNCc2csc(C)n2)c1 , thanks.
Output: 1.61

###

Target: Tyrosyl-tRNA synthetase, putative (Trypanosoma cruzi (strain CL Brener))
Sequence (whole entry): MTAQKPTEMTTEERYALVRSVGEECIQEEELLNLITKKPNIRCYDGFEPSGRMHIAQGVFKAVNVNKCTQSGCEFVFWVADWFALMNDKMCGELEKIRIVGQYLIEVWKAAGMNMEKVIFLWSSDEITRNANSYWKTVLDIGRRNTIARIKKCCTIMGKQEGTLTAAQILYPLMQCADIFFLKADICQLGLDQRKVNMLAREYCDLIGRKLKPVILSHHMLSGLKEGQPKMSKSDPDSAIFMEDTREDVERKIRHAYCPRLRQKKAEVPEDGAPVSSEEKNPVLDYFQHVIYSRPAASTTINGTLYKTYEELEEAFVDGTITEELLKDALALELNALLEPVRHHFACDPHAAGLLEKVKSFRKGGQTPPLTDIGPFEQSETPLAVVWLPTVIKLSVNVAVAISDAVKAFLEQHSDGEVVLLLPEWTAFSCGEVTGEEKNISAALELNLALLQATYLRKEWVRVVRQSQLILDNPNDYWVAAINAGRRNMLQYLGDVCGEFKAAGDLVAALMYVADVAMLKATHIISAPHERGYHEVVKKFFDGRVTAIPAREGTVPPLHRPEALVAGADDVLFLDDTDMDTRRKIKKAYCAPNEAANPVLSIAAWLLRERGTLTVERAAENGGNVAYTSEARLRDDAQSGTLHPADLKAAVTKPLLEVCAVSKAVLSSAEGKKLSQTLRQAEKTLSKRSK
Test: Trypanosoma cruzi tyrosyl tRNA synthetase (TcYRS) SOP
Format: functional
Set-up: scale not given: direction of the effect not stated beside the values
Settings: 30 µM
Entries and their Percent Effect values follow.
Your answer should be a plain number; it is taken to be in %.

- COc1ccc(CN(Cc2cccnc2)CC2CCCO2)c(OC)c1 (centres undefined): 6.41
- CN(c1ccncn1)C1CC2(CCN(C(=O)CCc3cccs3)C2)C1 (centres undefined): 6.49
- COc1ccc(NC(C)C(=O)NCCc2cccs2)cc1F (centres undefined): -5
- c1csc(-c2nc(CN3CCCC3Cn3cncn3)co2)c1 (centres undefined): 5

Input: Let me know recorded Percent Effect for CCn1cc(CN2CCCn3nc(CCC(=O)NCCO)cc3C2)cn1 , thanks.
Output: 8.64

Input: Let me know recorded Percent Effect for COc1ccc(C2(NC(=O)CCn3cncn3)CCCCC2)cc1 , thanks.
Output: 11.7

Input: Let me know recorded Percent Effect for Cn1cc(C2CCCN2C(=O)CCCOc2ccc(F)cc2F)cn1 (centres undefined) , thanks.
Output: 3.8

Input: Let me know recorded Percent Effect for O=C(NC(CO)CO)c1coc(COc2cccc(F)c2)n1 , thanks.
Output: 21

Input: Let me know recorded Percent Effect for Cc1ccc(C(=O)NCCCNS(C)(=O)=O)cc1-n1cccc1 , thanks.
Output: 10.4

Input: Let me know recorded Percent Effect for c1ccc(N2CCCC3(COCCN(c4nccs4)C3)C2)nc1 (centres undefined) , thanks.
Output: 23.5

Input: Let me know recorded Percent Effect for CCc1ccc(S(=O)(=O)Nc2cc(C(=O)O)c(F)cc2F)s1 , thanks.
Output: 16.1

Input: Let me know recorded Percent Effect for Cc1cc(N(C)Cc2noc(C)n2)n2nc(C)c(C)c2n1 , thanks.
Output: 10.3

Input: Let me know recorded Percent Effect for COCCN(Cc1ccoc1)C(=O)c1cccnc1SC , thanks.
Output: 6.41

Input: Let me know recorded Percent Effect for CCN(Cc1nc(C(C)C)no1)Cc1cccs1 , thanks.
Output: -1.24

Input: Let me know recorded Percent Effect for CN1CCN(Cc2cn3c(n2)CN(Cc2cccnc2)CC3)CC1 , thanks.
Output: 10.3

Input: Let me know recorded Percent Effect for Cc1ccc(-n2nnc(CC(=O)N3CCSCC3)c2C)cc1 , thanks.
Output: 21

Input: Let me know recorded Percent Effect for COCCC(=O)N1C[C@@H]2COC[C@]2(COCc2cccnc2)C1 , thanks.
Output: 8.97

Input: Let me know recorded Percent Effect for Cc1ccc(N(C)C2CCN(C(=O)CCc3ccco3)CC2)nn1 , thanks.
Output: 23.2

Input: Let me know recorded Percent Effect for Cc1cccc2c1cnn2CCCNC(=O)CCCC(=O)O , thanks.
Output: 16.1
